The measured values listed here are drawn from paper PMC12136788.

Target: T1, UNK ZnF1-3 (human, UniProt Q9C0B0 31-174)
T1 sequence: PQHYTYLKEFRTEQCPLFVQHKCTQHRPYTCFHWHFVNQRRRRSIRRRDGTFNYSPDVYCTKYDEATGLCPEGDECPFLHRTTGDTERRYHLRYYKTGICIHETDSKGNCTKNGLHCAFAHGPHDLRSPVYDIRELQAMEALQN
Test: nsRBNS (natural sequence RNA bind-n-seq); RBNS binding buffer (assumed for nsRBNS): 25 mM Tris pH 7.5, 150 mM KCl, 3 mM MgCl2, 0.01% Triton X-100, 500 ug/ml BSA, 20 U/ml SUPERase-In, 4 C; UNK is unkempt and MSI1 is Musashi-1; names of the RNAs are library labels; protein concentration not given here; high values mean tight binding
In all, about 24,000 sequences were measured (“enrichment r”: median about 0.99, highest 2% from about 3.7 on). Shown is part of a subset that was picked to be rich in the highest values.
Using binding signal as the sorting value, the categories are group 1 (below 0.9 enrichment R), group 2 (0.9 enrichment R to below 2 enrichment R), group 3 (2 enrichment R or more)

{"columns": ["binder", "assignedCategory"],
 "data": [
  ["chr2:25965407:25965408:-_ENSG00000143970_ENST00000336112|hu_hu|motif|central (ssRNA) RNA: GGGAGUUCUACAGUCCGACGAUCCUGUGCUGCCUGAAUUAAAUCUCUGGCUAGGGUCUUUUCAUCAAAUGUUUGGCCUCGGGUGAACAGGUAAUUCUCCUUACUUAAAGUGGUUUGCUCAUUCAAUGGUAUCUCAGCCUUCACCAACAGAGGAUUGAGCAUCA", "group 1"],
  ["chr13:113691719:113691720:-_ENSMUSG00000016018_ENSMUST00000022281|mus_hu|FALSE|FALSE (ssRNA) RNA: GGGAGUUCUACAGUCCGACGAUCGUAUUCACCAGAAGAAAUCCAUCGGAAAUCCUUCCCAUCAAAUUUGCGGGCAUUUGUAAAUAAAACAGUUCUAGCUGGCAUGUUAAUUCCCAUAGCAAAGGUCUCCGUGGCAAAUAAGGCCAACAGAGGAUUGAGCAUCA", "group 2"],
  ["chr9:14812383:14812384:-_ENSMUSG00000031934_ENSMUST00000164273|mus_mus|mus_mus_mus_hu_True|38_108 (ssRNA) RNA: GGGAGUUCUACAGUCCGACGAUCAUAGCUCAAGUAGAUACACGCUAACAGUAUAAUGAUGAGUGUCAGCAGGCGGCAGCUAAUGUACUUGAUGAUUAAAUGACUAGAAUUUUUCUUUGUCUUCAAGUACUGCUCCACAAUUGGCAACAGAGGAUUGAGCAUCA", "group 1"],
  ["chr7:34932688:34932689:-_ENSMUSG00000052997_ENSMUST00000102746|mus_mus|FALSE|FALSE (ssRNA) RNA: GGGAGUUCUACAGUCCGACGAUCCAAGAGCUUCUUUCUUGGGUUUGGCUGCUUAUUCAAAAAAAUAGUUCUACACUGGUCUAUUUUUCCAGAUAAAAUCUUUAAUCCUUCCAACACUAUCAAGCCGGCGAUCACUGCAUUAGUCAACAGAGGAUUGAGCAUCA", "group 2"],
  ["chrX:132781199:132781200:+_ENSMUSG00000042712_ENSMUST00000048687|mus_hu|FALSE|FALSE (ssRNA) RNA: GGGAGUUCUACAGUCCGACGAUCUGCUAAUAAAAAGCAAGCUAUAUGGUAUUGUUAAUAUCAGAUAAAAAUCAAGGUAAACUACAUUAAAUAGGGGUAAGGAUGGUUUCGAUUAACCUUCCAACGCAUCACUAUAAGUUUGUUCAACAGAGGAUUGAGCAUCA", "group 3"],
  ["chr1:71529667:71529668:-_ENSG00000132485_ENST00000254821|hu_hu|FALSE|FALSE (ssRNA) RNA: GGGAGUUCUACAGUCCGACGAUCUUGUCACUGGAAAUACUGUUAAGAGAAACCUUUUUAUUUUUUAAACCAGAAAACAAACUAAAGCUCAUGUGACCAGAUUUUAAUUUUGAGAAAUAAACUCCAAAAGCAUUUUAAGCCAUACAACAGAGGAUUGAGCAUCA", "group 2"],
  ["chr1:225611761:225611762:-_ENSG00000143815_ENST00000272163|hu_mus|hu_hu_hu_mus_True|78_108 (ssRNA) RNA: GGGAGUUCUACAGUCCGACGAUCCCAGGCCAUCGACCUCUGACCACUUCACCCUCAGCAAAUUUCCUACUUGGCAUUUUCUAAAAUUAGUCUGGCCGCGCUCCGGCGGGAACUCCAGCCACUCCAGGACAGUCACCAGCAGCCCAACAGAGGAUUGAGCAUCA", "group 2"],
  ["chr16:67134085:67134086:+_ENSG00000067955_ENST00000412916|hu_mus|FALSE|FALSE (ssRNA) RNA: GGGAGUUCUACAGUCCGACGAUCGAAUUGACCAUGUCAGUUUUUAAAAUUUUCUAAAAUAAUGCCAUUUUAUGAUAAAAUACAUUUUUGCAAAAAUUCAGAAAUGUAGUAACAUUUAAUGAAUACGACCACGGAAAGUAUUGUCAACAGAGGAUUGAGCAUCA", "group 3"],
  ["chr5:162868235:162868236:+_ENSG00000113328_ENST00000340828|hu_hu|motif|central (ssRNA) RNA: GGGAGUUCUACAGUCCGACGAUCCCAACACACCUUCUCCAAUACAAUCUUUUCCAUUCUCAUCAAGUCUGAAACCGUAAACCGGUAUUGACUUAUUCGGAUCAAGUCAGUUGCCAAUGGGACAUUCCUUUCCUCUUCUAUUGACAACAGAGGAUUGAGCAUCA", "group 1"],
  ["chr2:176857141:176857142:-_ENSG00000144320_ENST00000272748|hu_mus|motif|central (ssRNA) RNA: GGGAGUUCUACAGUCCGACGAUCUUUUUGCAAUCUCUGAUUUUUUUCUCUAAAUUCUUCCAAUGCUUGAAUUUCCUUAUCGGUAUUUUCUAGAACUUCUACUGUUGAAGGUUUUGCCCUCCAUCGAGAAAAUAAUCCACCCAUCAACAGAGGAUUGAGCAUCA", "group 1"]
]}
